# Tested on: Bacillus subtilis
# EXPERIMENTAL_PROTOCOL: Antibacterial activity against Bacillus subtilis ATCC 6633 after 24 hrs by colorimetric method using dye MTT
# Format: functional
# PROTOCOL_CONDITIONS: ATCC 6633, 24 h
ENDPOINT_NAME: MIC (µg/mL)

Recorded MIC (compound NC[C@H]1O[C@H](O[C@H]2[C@H](O)[C@@H](O[C@H]3O[C@H](CO)[C@@H](O)[C@H](N)[C@H]3O)[C@H](N)C[C@@H]2N)[C@H](O)[C@@H](O)[C@@H]1O ): 1.56

A. CC(CNC(=O)c1ccccc1O)/N=C/c1cc(I)ccc1O (centres undefined)
B. Cc1ccc(C(=O)NCC(C)/N=C/c2c(O)ccc3ccccc23)c(O)c1 (centres undefined)
Input: Of A versus B , which is the one with smaller reported MIC? Give the chosen item's label as your response.
Output: A
(A: 0.78 µg/mL, B: 6.25 µg/mL)
